# credit: the supplement of paper PMC10567573

B1: TMEM106C (parent)
chain: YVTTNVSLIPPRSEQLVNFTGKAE

# Variants of: B1
# test-method-notes: protein stability index of a GFP-peptide fusion (GPS, HEK-293T) (PSI 1-6); higher = more stable;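 further: lentivirally expressed fusions sorted by FACS into six bins by GFP to DsRed ratio, PSI derived from sequencing read proportions per bin multiplied by bin number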
# experimental-conditions: c terminus: a fixed tail appended
test-readout: protein stability index

Query block: # get_value(readout='protein stability index', item= YVTTNVSLIPPRSEQLVNFTIKAE [G21I] )
Result block: 2.1
